Values compiled from ChEMBL document CHEMBL4823295.

Biological target: UniProtKB P35462
Sequence (P35462 whole entry): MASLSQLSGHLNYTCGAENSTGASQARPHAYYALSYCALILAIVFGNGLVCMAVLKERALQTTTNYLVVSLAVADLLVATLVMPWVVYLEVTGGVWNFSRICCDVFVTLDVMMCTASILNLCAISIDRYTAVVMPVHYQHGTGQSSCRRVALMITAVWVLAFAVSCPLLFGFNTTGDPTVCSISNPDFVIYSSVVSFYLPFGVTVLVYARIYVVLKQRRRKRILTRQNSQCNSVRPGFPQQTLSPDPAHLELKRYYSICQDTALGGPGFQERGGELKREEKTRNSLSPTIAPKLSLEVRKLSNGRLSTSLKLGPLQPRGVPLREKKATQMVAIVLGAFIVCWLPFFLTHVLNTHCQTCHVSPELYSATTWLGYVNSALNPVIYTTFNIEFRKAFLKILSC
Mark t only for Ki values smaller than 10 nM; exact matches and larger values are f.

**Query** Find out if reported Ki for COc1ccc2c(c1)[C@H]1OCCN(CCCCNC(=O)c3ccc(Cl)cc3)[C@@H]1CO2 (racemic) is less than 10 nM
**Result** f

**Query** Find out if reported Ki for O=C(NCCCCN1CCO[C@@H]2c3ccccc3OC[C@H]21)c1ccco1 (racemic) is less than 10 nM
**Result** f

**Query** Find out if reported Ki for O=C(NCCCCN1CCO[C@@H]2c3ccccc3OC[C@H]21)c1ccc(Br)cc1 (racemic) is less than 10 nM
**Result** f

**Query** Find out if reported Ki for COc1ccc2c(c1)[C@H]1OCCN(CCCCNC(=O)c3cccc4ccccc34)[C@@H]1CO2 (racemic) is less than 10 nM
**Result** f

**Query** Find out if reported Ki for COc1ccc2c(c1)[C@H]1OCCN(CCCCNC(=O)c3ccco3)[C@@H]1CO2 (racemic) is less than 10 nM
**Result** t

**Query** Find out if reported Ki for COc1ccc2c(c1)[C@H]1OCCN(CCCCNC(=O)c3ccc4ccccc4c3)[C@@H]1CO2 (racemic) is less than 10 nM
**Result** f

**Query** Find out if reported Ki for O=C(NCCCCN1CCO[C@@H]2c3ccccc3OC[C@H]21)c1ccc(-c2ccccc2)cc1 (racemic) is less than 10 nM
**Result** f

**Query** Find out if reported Ki for O=C(NCCCCN1CCO[C@@H]2c3ccccc3OC[C@@H]21)c1cccs1 (racemic) is less than 10 nM
**Result** f

**Query** Find out if reported Ki for O=C(NCCCCN1CCO[C@@H]2c3ccccc3OC[C@H]21)c1cccc2ccccc12 (racemic) is less than 10 nM
**Result** f

**Query** Find out if reported Ki for O=C(NCCCCN1CCO[C@@H]2c3ccccc3OC[C@H]21)c1ccccc1 (racemic) is less than 10 nM
**Result** f

**Query** Find out if reported Ki for COc1ccc2c(c1)[C@H]1OCCN(CCCCNC(=O)c3cccc(Cl)c3)[C@@H]1CO2 (racemic) is less than 10 nM
**Result** f

**Query** Find out if reported Ki for COc1ccc2c(c1)[C@H]1OCCN(CCCCNC(=O)C3CCCCC3)[C@@H]1CO2 (racemic) is less than 10 nM
**Result** f

**Query** Find out if reported Ki for COc1ccc2c(c1)[C@H]1OCCN(CCCCNC(=O)c3cc(OC)c(OC)c(OC)c3)[C@@H]1CO2 (racemic) is less than 10 nM
**Result** t

**Query** Find out if reported Ki for COc1ccc2c(c1)[C@H]1OCCN(CCCCNC(=O)c3ccc(Br)cc3)[C@@H]1CO2 (racemic) is less than 10 nM
**Result** t

**Query** Find out if reported Ki for O=C(NCCCCN1CCO[C@@H]2c3ccccc3OC[C@H]21)c1ccc2ccccc2c1 (racemic) is less than 10 nM
**Result** f

**Query** Find out if reported Ki for CCCN1CCO[C@@H]2c3cc(O)ccc3OC[C@H]21 is less than 10 nM
**Result** t

----------
Assay: Toxicity in naloxone-induced withdrawal symptoms in morphine-dependent mouse model assessed as convulsions at 50 mg/kg, ip administered 60 mins prior to naloxone injection
Assay type: organism-based
Settings: in vivo, 1 h

COMPOUND | Activity
O=C(NCCCCN1CCO[C@@H]2c3ccccc3OC[C@H]21)c1ccco1 (racemic) | Toxic
COc1ccc2c(c1)[C@H]1OCCN(CCCCNC(=O)c3cccs3)[C@@H]1CO2 (racemic) | Toxic
COc1ccc2c(c1)[C@H]1OCCN(CCCCNC(=O)c3cc(OC)c(OC)c(OC)c3)[C@@H]1CO2 (racemic) | Toxic
COc1ccc2c(c1)[C@H]1OCCN(CCCCNC(=O)c3cccnc3)[C@@H]1CO2 (racemic) | Toxic
